TARGET_ENTITY: Human M4 (Homo sapiens)
TEST_NAME: mAChR M4 cell-based functional assay (calcium flux, Fluo-4, M4/Gqi5/CHO-K1 cells)
Overview of reported log10 of IC50 across a group of compounds:
MEASURE_NAME: log10 of IC50 (log10 of the value in nM)

compound="[2H]C([2H])(C1CCOCC1)N1C[C@H]2C[C@H](Nc3nnc(-c4cc(F)ccc4F)c4sccc34)C[C@H]2C1 [compound 18]" val=0.48
compound="Fc1ccc(-c2nnc(N[C@H]3C[C@@H]4CN(CC5CCOCC5)C[C@@H]4C3)c3c2CCCC3)cc1 [compound 26]" val=1.77
compound="Clc1nnc(N[C@H]2C[C@@H]3CN(CC4CCOCC4)C[C@@H]3C2)c2sccc12 [compound 12]" val=2.45
compound="C[C@H]1CCCN(c2nnc(N[C@H]3C[C@@H]4CN(CC5CCOCC5)C[C@@H]4C3)c3ccsc23)C1 [compound 21]" val=1.18
compound="c1ccc(-c2nnc(N[C@H]3C[C@@H]4CN(CC5CCOCC5)C[C@@H]4C3)c3ccsc23)cc1 [compound 8]" val=0.67
compound="Fc1cc(F)c(F)c(-c2nnc(N[C@H]3C[C@@H]4CN(CC5CCOCC5)C[C@@H]4C3)c3ccsc23)c1 [compound 16]" val=0.23

====

TARGET_ENTITY: Human M4 (Homo sapiens)
Construct: expressed in transfected cells; host or cells: CHO-K1 (ATCC), stably co-expressing chimeric G protein Gqi5
TEST_NAME: mAChR M4 cell-based functional assay (calcium flux, Fluo-4, M4/Gqi5/CHO-K1 cells)
COND: CHO-K1, read-out: Human M4 Emin (%), % ACh maximum at 30 μM
MEASURE_NAME: remaining activity at 30 µM (%)

mol=Fc1cccc(-c2nnc(N[C@H]3C[C@@H]4CN(CC5CCOCC5)C[C@@H]4C3)c3c2CCCC3)c1 val=3
mol=Fc1ccc(F)c(-c2nnc(N[C@H]3C[C@@H]4CN(CC5CCOCC5)C[C@@H]4C3)c3sccc23)c1 val=4
mol=c1ccc(-c2nnc(N[C@H]3C[C@@H]4CN(CC5CCOCC5)C[C@@H]4C3)c3ccsc23)cc1 val=3
mol=Cc1ccccc1-c1nnc(N[C@H]2C[C@@H]3CN(CC4CCOCC4)C[C@@H]3C2)c2ccsc12 val=4
mol=Fc1ccccc1-c1nnc(N[C@H]2C[C@@H]3CN(CC4CCOCC4)C[C@@H]3C2)c2sccc12 val=3
mol=c1ccc(-c2nnc(N[C@H]3C[C@@H]4CN(CC5CCOCC5)C[C@@H]4C3)c3sccc23)cc1 val=4
mol=Fc1ccccc1-c1nnc(N[C@H]2C[C@@H]3CN(CC4CCOCC4)C[C@@H]3C2)c2c1CCCC2 val=3
mol=Cc1ccc(F)cc1-c1nnc(N[C@H]2C[C@@H]3CN(CC4CCOCC4)C[C@@H]3C2)c2sccc12 val=3
mol=Cn1cc2cc(-c3nnc(N[C@H]4C[C@@H]5CN(CC6CCOCC6)C[C@@H]5C4)c4ccsc34)ccc2n1 val=3
mol=FC1(F)CCN(c2nnc(N[C@H]3C[C@@H]4CN(CC5CCOCC5)C[C@@H]4C3)c3ccsc23)CC1 val=3
mol=Cc1c(-c2nnc(N[C@H]3C[C@@H]4CN(CC5CCOCC5)C[C@@H]4C3)c3ccsc23)ccc2nn(C)cc12 val=3
mol=Fc1ccc(-c2nnc(N[C@H]3C[C@@H]4CN(CC5CCOCC5)C[C@@H]4C3)c3c2CCCC3)cc1 val=3
mol=Cc1ccc(C)c(-c2nnc(N[C@H]3C[C@@H]4CN(CC5CCOCC5)C[C@@H]4C3)c3ccsc23)c1 val=3

====

Overview of reported IC50 across a group of compounds:
TARGET_ENTITY: UniProt:P08173
TEST_NAME: mAChR M4 cell-based functional assay (calcium flux, Fluo-4, M4/Gqi5/CHO-K1 cells)
MEASURE_NAME: IC50

mol=c1ccc(-c2nnc(N[C@H]3C[C@@H]4CN(CC5CCOCC5)C[C@@H]4C3)c3sccc23)cc1 val="1.46 nM"
mol=Clc1nnc(N[C@H]2C[C@@H]3CN(CC4CCOCC4)C[C@@H]3C2)c2ccsc12 val="204 nM"
mol=Cc1c(-c2nnc(N[C@H]3C[C@@H]4CN(CC5CCOCC5)C[C@@H]4C3)c3ccsc23)ccc2nn(C)cc12 val="0.65 nM"
mol=FC1(F)CCN(c2nnc(N[C@H]3C[C@@H]4CN(CC5CCOCC5)C[C@@H]4C3)c3ccsc23)CC1 val="5.64 nM"
mol=Fc1ccccc1-c1nnc(N[C@H]2C[C@@H]3CN(CC4CCOCC4)C[C@@H]3C2)c2sccc12 val="2.31 nM"
mol=Fc1ccc(F)c(-c2nnc(N[C@H]3C[C@@H]4CN(CC5CCOCC5)C[C@@H]4C3)c3c2CCCC3)c1 val="5.43 nM"
mol=[2H]C([2H])(C1CCOCC1)N1C[C@H]2C[C@H](Nc3nnc(-c4cc(F)ccc4F)c4ccccc34)C[C@H]2C1 val="12 nM"
mol=[2H]C([2H])(C1CCOCC1)N1C[C@H]2C[C@H](Nc3nnc(-c4cc(F)ccc4C)c4sccc34)C[C@H]2C1 val="1.4 nM"
mol=FC1(F)CCN(c2nnc(N[C@H]3C[C@@H]4CN(CC5CCOCC5)C[C@@H]4C3)c3c2CCCC3)CC1 val="14.6 nM"
mol=Fc1ccccc1-c1nnc(N[C@H]2C[C@@H]3CN(CC4CCOCC4)C[C@@H]3C2)c2ccsc12 val="7690 nM"
mol=Cc1ccccc1-c1nnc(N[C@H]2C[C@@H]3CN(CC4CCOCC4)C[C@@H]3C2)c2ccsc12 val="2.47 nM"
mol=Cc1ccc(C)c(-c2nnc(N[C@H]3C[C@@H]4CN(CC5CCOCC5)C[C@@H]4C3)c3ccsc23)c1 val="13.6 nM"
mol=Cc1ccc(F)cc1-c1nnc(N[C@H]2C[C@@H]3CN(CC4CCOCC4)C[C@@H]3C2)c2ccsc12 val="5.11 nM"
mol=Fc1cccc(-c2nnc(N[C@H]3C[C@@H]4CN(CC5CCOCC5)C[C@@H]4C3)c3c2CCCC3)c1 val="9.04 nM"

====

Overview of reported remaining activity at 30 µM across a group of compounds:
TARGET_ENTITY: Human M4 (Homo sapiens, UniProt P08173)
Construct: expressed in transfected cells; host or cells: CHO-K1 (ATCC), stably co-expressing chimeric G protein Gqi5
Sequence (P08173 1-479): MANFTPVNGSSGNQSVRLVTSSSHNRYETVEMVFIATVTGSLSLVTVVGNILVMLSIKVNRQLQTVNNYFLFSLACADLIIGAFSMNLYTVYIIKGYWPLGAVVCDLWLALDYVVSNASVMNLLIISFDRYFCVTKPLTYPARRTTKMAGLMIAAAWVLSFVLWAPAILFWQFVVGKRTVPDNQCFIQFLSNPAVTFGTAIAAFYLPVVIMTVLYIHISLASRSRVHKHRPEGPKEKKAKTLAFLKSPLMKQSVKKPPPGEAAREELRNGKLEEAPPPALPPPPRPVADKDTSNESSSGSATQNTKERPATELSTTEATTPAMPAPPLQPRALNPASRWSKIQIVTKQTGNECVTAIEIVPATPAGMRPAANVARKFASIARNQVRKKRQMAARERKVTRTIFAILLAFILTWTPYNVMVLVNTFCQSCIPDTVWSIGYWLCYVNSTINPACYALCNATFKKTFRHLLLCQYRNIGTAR
TEST_NAME: mAChR M4 cell-based functional assay (calcium flux, Fluo-4, M4/Gqi5/CHO-K1 cells)
COND: CHO-K1, read-out: Human M4 Emin (%), % ACh maximum at 30 μM
Method: Human or rat M4 cDNA, along with the chimeric G protein Gqi5, were transfected into Chinese hamster ovary (CHO-K1) cells purchased from the American Type Culture Collection using Lipofectamine2000. […] Calcium flux was measured using the Functional Drug Screening System (FDSS) 6000 or 7000 (Hamamatsu Corporation, Tokyo, Japan) as an increase in the fluorescent static ratio. […] Agonist activity was analyzed as a concentration-dependent increase in calcium mobilization upon compound addition. […]
MEASURE_NAME: remaining activity at 30 µM

compound="Clc1nnc(N[C@H]2C[C@@H]3CN(CC4CCOCC4)C[C@@H]3C2)c2ccsc12 [compound 1]" val=3%
compound="Cc1ccc(F)cc1-c1nnc(N[C@H]2C[C@@H]3CN(CC4CCOCC4)C[C@@H]3C2)c2ccsc12 [compound 3]" val=3%
compound="Fc1ccc(F)c(-c2nnc(N[C@H]3C[C@@H]4CN(CC5CCOCC5)C[C@@H]4C3)c3ccsc23)c1 [compound 2]" val=3%
compound="Fc1cc(F)c(F)c(-c2nnc(N[C@H]3C[C@@H]4CN(CC5CCOCC5)C[C@@H]4C3)c3ccsc23)c1 [compound 16]" val=4%
compound="[2H]C([2H])(C1CCOCC1)N1C[C@H]2C[C@H](Nc3nnc(-c4cc(F)ccc4F)c4sccc34)C[C@H]2C1 [compound 18]" val=3%
compound="Cn1cc2cc(-c3nnc(N[C@H]4C[C@@H]5CN(CC6CCOCC6)C[C@@H]5C4)c4sccc34)ccc2n1 [compound 13]" val=3%
compound="Fc1ccc(F)c(-c2nnc(N[C@H]3C[C@@H]4CN(CC5CCOCC5)C[C@@H]4C3)c3c2CCCC3)c1 [compound 23]" val=3%
compound="Fc1ccccc1-c1nnc(N[C@H]2C[C@@H]3CN(CC4CCOCC4)C[C@@H]3C2)c2ccsc12 [compound 7]" val=15%
compound="C[C@H]1CCCN(c2nnc(N[C@H]3C[C@@H]4CN(CC5CCOCC5)C[C@@H]4C3)c3ccsc23)C1 [compound 21]" val=4%
compound="Clc1nnc(N[C@H]2C[C@@H]3CN(CC4CCOCC4)C[C@@H]3C2)c2sccc12 [compound 12]" val=5%
compound="FC1(F)CCN(c2nnc(N[C@H]3C[C@@H]4CN(CC5CCOCC5)C[C@@H]4C3)c3c2CCCC3)CC1 [compound 22]" val=3%
compound="[2H]C([2H])(C1CCOCC1)N1C[C@H]2C[C@H](Nc3nnc(-c4cc(F)ccc4C)c4sccc34)C[C@H]2C1 [compound 19]" val=3%
compound="[2H]C([2H])(C1CCOCC1)N1C[C@H]2C[C@H](Nc3nnc(-c4cc(F)ccc4F)c4ccccc34)C[C@H]2C1 [compound 27]" val=3%
compound="COc1ccccc1-c1nnc(N[C@H]2C[C@@H]3CN(CC4CCOCC4)C[C@@H]3C2)c2ccsc12 [compound 6]" val=20%

Every entry's value here was drawn from patent US12319701B2.
